test: Inhibition of alpha-glucosidase (unknown origin) using PNP glycoside as substrate preincubated for 30 mins followed by substrate addition after 60 mins by spectrophotometric analysis; set-up: species or system Homo sapiens
readout.label: IC50 (µM)

COc1ccc(/N=c2\scc(-c3cc4ccccc4oc3=O)n2NC(=O)c2ccccc2O)cc1 | 1.1

(a) O=C(Nn1c(-c2cc3ccccc3oc2=O)cs/c1=N\c1ccc(Cl)c(Cl)c1)c1ccccc1O
(b) COc1ccc(/N=c2\scc(-c3cc4ccccc4oc3=O)n2NC(=O)c2ccc(C(C)(C)C)cc2)cc1
(c) COc1ccc(/N=c2\scc(-c3cc4ccccc4oc3=O)n2NC(=O)c2ccc(OC)cc2OC)cc1
# sort list by recorded IC50, greatest to least // format: requested-order list of labels
c, b, a
(c: 7.4 µM, b: 1.4 µM, a: 0.12 µM)

meta.source: ChEMBL document CHEMBL3864128
